Test system: cyBCMA
test-details: Kinetics and affinity of cyBCMA/human IgG interactions by SPR (Bio-Rad Proteon XPR36)
Type: binding, cynomolgus
cond: 25° C.
Property: ka (1/Ms) cyBCMA @ 25° C.; scope: individual molecules
Write down the numeric answer in M⁻¹ s⁻¹ and omit the unit.

# molecule, reported-value
rows = [
    ("L1.GDF/L3.NY/H3.AP: anti-BCMA antibody (antibody, V domains shown) VH: EVQLLESGGGLVQPGGSLRLSCAASGFTFGSYAMTWVRQAPGKGLEWVSAISGSGGNTFYADSVKGRFTISRDNSKNTLYLQMNSLRAEDTAVYYCARVSPIAAPMDYWGQGTLVTVSS VL: EIVLTQSPGTLSLSPGERATLSCRASQSVGDFYLAWYQQKPGQAPRLLIYGASSRATGIPDRFSGSGSGTDFTLTISRLEPEDFAVYYCQHYNYPPSFTFGQGTKVEIK", "1.36e+06"),
]

Below: the item to evaluate.
Exercise: Query (molecule): L1.GDF/L3.NY/H3.AL: anti-BCMA antibody (antibody, V domains shown) VH: EVQLLESGGGLVQPGGSLRLSCAASGFTFGSYAMTWVRQAPGKGLEWVSAISGSGGNTFYADSVKGRFTISRDNSKNTLYLQMNSLRAEDTAVYYCARVSPIAALMDYWGQGTLVTVSS VL: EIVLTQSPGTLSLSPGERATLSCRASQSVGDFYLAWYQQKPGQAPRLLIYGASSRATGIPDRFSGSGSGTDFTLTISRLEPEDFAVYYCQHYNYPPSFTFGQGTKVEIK ; field requested: ka (1/Ms) cyBCMA @ 25° C.
Solution: 900000
